tested on: clinical isolates of Vancomycin-resistant Enterococcus faecium (VRE); experiment: MIC determination at Fidelta, clinical isolates; format: cell-based; conditions: VRE-2007, Urine
For each of the compounds below, state its MIC90.

N=C(N)NC1C(O)[C@@H](CO)OC(OC2C(F)[C@H](O[C@H]3OC(CN)[C@@H](O)CC3N)C(N)C[C@H]2NC(=O)[C@@H](O)CCN)[C@@H]1O (stereo partly drawn) [ABX5006, Tobra-AHB-F-Gua] :: 4 µg/mL
N=C(NC[C@@H]1CCCN1)NC1[C@@H](O)C(OC2[C@@H](F)[C@H](O[C@H]3OC(CN)[C@@H](O)CC3N)C(N)C[C@H]2NC(=O)[C@@H](O)CCN)O[C@H](CO)[C@H]1O (stereo partly drawn) [ABX5026] :: 4 µg/mL
NCC[C@H](O)C(=O)N[C@@H]1C[C@H](N)[C@@H](O[C@H]2O[C@H](CN)[C@@H](O)[C@H](O)[C@H]2O)[C@H](O)[C@H]1O[C@H]1O[C@H](CO)[C@@H](O)[C@H](N)[C@H]1O [Amikacin, amikacin, reference compound] :: > 64 µg/mL

For each of the compounds below, note its MIC90.
1. C[C@@H](O)[C@H]1C(=O)N2C(C(=O)O)=C(S[C@@H]3CN[C@H](C(=O)N(C)C)C3)[C@H](C)[C@H]12 [Meropenem, meropenem, reference compound]
2. CC(C)(O/N=C(\C(=O)N[C@@H]1C(=O)N2C(C(=O)[O-])=C(C[n+]3ccccc3)CS[C@H]12)c1csc(N)n1)C(=O)O [Ceftazidime, reference compound]
3. N=C(NC[C@@H]1CCNC1)NC1[C@@H](O)C(OC2[C@@H](F)[C@H](O[C@H]3OC(CN)[C@@H](O)CC3N)C(N)C[C@H]2NC(=O)[C@@H](O)CCN)O[C@H](CO)[C@H]1O (stereo partly drawn) [ABX5039]

["> 64 µg/mL", "> 64 µg/mL", "4 µg/mL"]

###

For each of the molecules below, state its MIC90.
test system: clinical isolates of multidrug-resistant Klebsiella pneumoniae (and ATCC43816); test: MIC determination at Fidelta, clinical isolates; assay type: cell-based; conditions: Klebsiella pneumoniae, ATCC43816, KP-1936; Abscess/NDM
Answers are plain numbers, in µg/mL.

For each of the molecules below, note its MIC90.
1. NC[C@H]1O[C@H](O[C@H]2[C@H](O)[C@@H](O[C@H]3O[C@H](CO)[C@@H](O)[C@H](N)[C@H]3O)[C@H](N)C[C@@H]2N)[C@H](N)C[C@@H]1O
2. NCC[C@H](O)C(=O)N[C@@H]1C[C@H](N)[C@@H](O[C@H]2O[C@H](CN)[C@@H](O)[C@H](O)[C@H]2O)[C@H](O)[C@H]1O[C@H]1O[C@H](CO)[C@@H](O)[C@H](N)[C@H]1O [Amikacin, amikacin, reference compound]

1. 16
2. 4

###

test system: A. baumannii DSM 105126; test: MIC 50, broth micro-dilution, DSM strains; type: cell-based, Acinetobacter baumannii; conditions: Acinetobacter baumannii, DSM105126, read-out: MIC 50
For each of the compounds below, state its MIC50.

CC(C)(C)CCNC(=N)NC1[C@@H](O)C(OC2[C@@H](F)[C@H](O[C@H]3OC(CN)[C@@H](O)CC3N)C(N)C[C@H]2NC(=O)[C@@H](O)CCN)O[C@H](CO)[C@H]1O (stereo partly shown) [ABX5025, Tobra-AHB-F-Gua 2-tBu-ethyl] :: 0.25 µM

For each of the compounds below, note its MIC50.
1. N=C(NCc1cnc[nH]1)NC1[C@@H](O)C(OC2[C@@H](F)[C@H](O[C@H]3OC(CN)[C@@H](O)CC3N)C(N)C[C@H]2NC(=O)[C@@H](O)CCN)O[C@H](CO)[C@H]1O (stereo partly shown) [ABX5050, Tobra-AHB-F-Gua imidazol-5-yl methyl]
2. N=C(N)NC1[C@@H](O)C(OC2[C@@H](F)[C@H](O[C@H]3OC(CN)[C@@H](O)[C@H](O)C3N)C(N)C[C@H]2NC(=O)[C@@H](O)CCN)O[C@H](CO)[C@H]1O (stereo partly shown) [ABX4006, KanaB-AHB-F-Gua]
3. C[C@@H](N)CCNC(=N)NC1[C@@H](O)C(OC2[C@@H](F)[C@H](O[C@H]3OC(CN)[C@@H](O)CC3N)C(N)C[C@H]2NC(=O)[C@@H](O)CCN)O[C@H](CO)[C@H]1O (stereo partly drawn) [ABX5047, Tobra-AHB-F-Gua (R) 3-amino-butyl]

1: 0.5 µM; 2: 0.125 µM; 3: 0.125 µM

Recorded values, source patent US20220127297A1.
